Values were extracted from patent US20260250381A1.

Please provide measured Binding Signal (fold over 6E7 parental antibody) for the entries that follow.
Molecular target: T1, human TREM2 (human) (UniProt Q9NZC2)
T1 sequence (looked up): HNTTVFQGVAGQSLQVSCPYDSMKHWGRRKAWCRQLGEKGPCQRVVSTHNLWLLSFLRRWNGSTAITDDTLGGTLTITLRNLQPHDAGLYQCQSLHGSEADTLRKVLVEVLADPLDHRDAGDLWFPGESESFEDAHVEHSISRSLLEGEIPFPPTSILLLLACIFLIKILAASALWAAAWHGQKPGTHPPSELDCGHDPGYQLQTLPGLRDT
Experiment: 2nd screen, 2 nM Ab
Numeric answer only, unit fold assumed.

q: Looking for the measured Binding Signal (fold over 6E7 parental antibody) of 6E7 variant V15 (antibody, V domains shown) VH: EVQLVQSGAEVKKPGESLKISCKGSGYSFASYWIAWVRQMPGKGLEWMGTIYPGDSDTRYSPSFQGQVTISADKSISTAYLQWSSLKASDTAMYFCARSRTFYYDSSDYFDYWGQGTLVTVSS VL: DIQMTQSPSSVSASVGDRVTITCRASQGISSWLAWYQQKPGKAPKLLIYAASWLQNGVPSRFSGSGSGTDFTLTISSLQPEDFATYFCQQADSYPRTFGQGTKLEIK , can you help?
a: 4.72

q: Would you mind doing 6E7 variant V3 (antibody, V domains shown) VH: EVQLVQSGAEVKKPGESLKISCKGSGYSFASYWIAWVRQMPGKGLEWMGIIYPGDSDTRYSPSFQDQVTISADKSISTAYLQWSSLKASDTAMYFCARGRTFYYDSSDYFDYWGQGTLVTVSS VL: DIQMTQSPSSVSASVGDRVTITCRASQGISSWLAWYQQKPGKAPKLLIYAASSRQNGVPSRFSGSGSGTDFTLTISSLQPEDFATYFCQQADRFPRTFGQGTKLEIK as well?
a: 1.95

q: Continue with 6E7 variant V13 (antibody, V domains shown) VH: EVQLVQSGAEVKKPGESLKISCKGSGYSFGSYWIAWVRQMPGKGLEWMGIIYPGDSDTRYSASFQGQVTISADKSISTAYLQWSSLKASDTAMYFCARGRTFYYDSSDYFDYWGQGTLVTVSS VL: DIQMTQSPSSVSASVGDRVTITCRASQGISSWLAWYQQKPGKAPKLLIYAASSLQGGVPSRFSGSGSGTDFTLTISSLQPEDFATYFCQQADSMPRTFGQGTKLEIK
a: 1.15

q: Again, but for 6E7 variant V38 (antibody, V domains shown) VH: EVQLVQSGAEVKKPGESLKISCKGSGYSFGSYWIAWVRQMPGKGLEWMGIIYPGDSDVRYSPSFQGQVTISADKSISTAYLQWSSLKASDTAMYFCARQRTFYYDSSDYFDYWGQGTLVTVSS VL: DIQMTQSPSSVSASVGDRVTITCRASQGISSWLAWYQQKPGKAPKLLIYAASSRQNGVPSRFSGSGSGTDFTLTISSLQPEDFATYFCQQADSHPRTFGQGTKLEIK
a: 3.44

q: Continue with 6E7 variant V84 (antibody, V domains shown) VH: EVQLVQSGAEVKKPGESLKISCKGSGYGFTSYWIAWVRQMPGKGLEWMGIIYPGDSDTRYSPSFQGQVTISADKSISTAYLQWSSLKASDTAMYFCARQRTFYYDSSDYSDYWGQGTLVTVSS VL: DIQMTQSPSSVSASVGDRVTITCRASQGISSWLAWYQQKPGKAPKLLIYGASSLQNGVPSRFSGSGSGTDFTLTISSLQPEDFATYFCQQADSFPRTFGQGTKLEIK
a: 1.45
